Target: recombinant human Myt1 (Homo sapiens)
Construct: full length PKMYT1 recombinant human protein expressed in insect cells
Sequence (Q99640 1-499): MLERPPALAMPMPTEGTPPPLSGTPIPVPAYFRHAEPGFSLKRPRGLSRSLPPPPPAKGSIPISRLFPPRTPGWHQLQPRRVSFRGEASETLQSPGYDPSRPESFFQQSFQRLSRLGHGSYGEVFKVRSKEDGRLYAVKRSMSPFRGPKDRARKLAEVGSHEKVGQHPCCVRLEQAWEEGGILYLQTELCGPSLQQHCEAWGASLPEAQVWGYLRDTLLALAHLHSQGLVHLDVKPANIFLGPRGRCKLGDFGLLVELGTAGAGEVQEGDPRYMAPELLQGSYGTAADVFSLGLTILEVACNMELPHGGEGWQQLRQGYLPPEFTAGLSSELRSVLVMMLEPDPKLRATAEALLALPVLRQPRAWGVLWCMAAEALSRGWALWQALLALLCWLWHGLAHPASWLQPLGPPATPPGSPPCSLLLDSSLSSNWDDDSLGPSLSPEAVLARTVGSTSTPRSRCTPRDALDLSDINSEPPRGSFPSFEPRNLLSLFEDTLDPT
Experiment: Myt1 enzymatic assay (ADP-Glo kinase assay, IC50 and % max inhibition)
Conditions: recombinant human Myt1 18 nM, ATP 10 μM
pIC50: −log10 of the molar value.
// reported pIC50 per item
quantity: pIC50

{"compound": "Cc1ccc(O)c(C)c1-n1c(N)c(C(N)=O)c2nc(N3CCCC3)cnc21 [Compound 85]", "quantity": "pIC50", "valueReported": "> 8.00"}
{"compound": "Cc1ccc(-c2cnc3c(n2)c(C(N)=O)c(N)n3-c2c(C)ccc(O)c2C)nc1 [Compound 61]", "quantity": "pIC50", "valueReported": "> 8.00"}
{"compound": "Cc1nc2c(C(N)=O)c(N)n(-c3c(Cl)ccc(O)c3C)c2nc1C [Compound 168]", "quantity": "pIC50", "valueReported": "> 8.00"}
{"compound": "Cc1ccc(O)c(C)c1-n1c(N)c(C(N)=O)c2cc(C#N)cnc21 [Compound 312]", "quantity": "pIC50", "valueReported": "> 8.00"}
{"compound": "Cc1ccc(O)c(C)c1-n1c(N)c(C(N)=O)c2nc(-c3ccc(F)cn3)cnc21 [Compound 64]", "quantity": "pIC50", "valueReported": "> 8.00"}
{"compound": "Cc1ccc(O)c(C)c1-n1c(N)c(C(N)=O)c2cc(S(=O)(=O)C3CC3)cnc21 [Compound 311]", "quantity": "pIC50", "valueReported": "> 8.00"}
{"compound": "C=C(C)c1cnc2c(n1)c(C(N)=O)c(N)n2-c1c(C)ccc(O)c1C [Compound 202]", "quantity": "pIC50", "valueReported": "> 8.00"}
{"compound": "Cc1ccc(O)c(C)c1-n1c(N)c(C(N)=O)c2c(C)c(Cl)cnc21 [Compound 313]", "quantity": "pIC50", "valueReported": "> 8.00"}
{"compound": "Cc1ccc(O)c(C)c1-n1c(N)c(C(N)=O)c2nc(N3CCC(C(=O)N(C)C)CC3)cnc21 [Compound 80]", "quantity": "pIC50", "valueReported": "> 8.00"}
{"compound": "Cc1ccc(O)c(C)c1-n1c(N)c(C(N)=O)c2cc(C(C)(C)O)cnc21 [Compound 131]", "quantity": "pIC50", "valueReported": "> 8.00"}
{"compound": "CCN(CC)c1cnc2c(n1)c(C(N)=O)c(N)n2-c1c(C)ccc(O)c1C [Compound 88]", "quantity": "pIC50", "valueReported": "> 8.00"}
{"compound": "Cc1ccc(O)c(C)c1-n1c(N)c(C(N)=O)c2nc(C(C)(C)F)cnc21 [Compound 178]", "quantity": "pIC50", "valueReported": "> 8.00"}
